# experimental.target: human CB2 (Homo sapiens)
# Construct: expressed in transfected cells; host or cells: HEK-293T (transient transfection, membrane preparation)
# assay.details: CB2 receptor binding assay, block of [3H]-CP 55,940 binding
# condition.parameters: membranes of HEK-293T cells transfected with human CB2 cDNA; 1.5 nM [3H]-CP 55,940
Label scheme for pKi: lower than 7 is FALSE, 7 and above is TRUE.

Completed entries (count: 3):
Req: Threshold query (pKi >= 7) on COc1ccnc2nc(-c3c(C)cc(O)cc3C)c(Nc3ccc4c(c3)OCCO4)n12
Resp: FALSE

Req: What do we get for COc1cccc2nc(-c3c(F)cc(O)cc3Cl)c(Nc3ccc4c(c3)OCCO4)n12 ?
Resp: TRUE

Req: What do we get for COc1ccc2nc(-c3c(F)cccc3Cl)c(Nc3ccc4c(c3)OCCO4)n2c1 ?
Resp: TRUE

Next:
Req: Threshold query (pKi >= 7) on COc1cc(O)ccc1-c1nc2ccc(C)cn2c1Nc1ccc2c(c1)OCCO2
Resp: FALSE

###

# experimental.target: human CB2 (Homo sapiens, UniProt P34972)
# Construct: expressed in transfected cells; host or cells: HEK-293T (transient transfection, membrane preparation)
# Sequence (P34972 whole entry): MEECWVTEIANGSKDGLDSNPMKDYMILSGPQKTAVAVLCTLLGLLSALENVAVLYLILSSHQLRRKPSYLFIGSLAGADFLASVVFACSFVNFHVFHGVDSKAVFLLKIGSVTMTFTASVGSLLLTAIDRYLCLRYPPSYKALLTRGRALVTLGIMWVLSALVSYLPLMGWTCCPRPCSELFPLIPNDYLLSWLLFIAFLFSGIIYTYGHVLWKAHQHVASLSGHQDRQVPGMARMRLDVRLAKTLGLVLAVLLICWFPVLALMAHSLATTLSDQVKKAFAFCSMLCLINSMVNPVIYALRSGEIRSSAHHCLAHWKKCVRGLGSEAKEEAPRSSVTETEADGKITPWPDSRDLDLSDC
# assay.details: CB2 receptor binding assay, block of [3H]-CP 55,940 binding
# condition.parameters: membranes of HEK-293T cells transfected with human CB2 cDNA; 1.5 nM [3H]-CP 55,940
# Protocol: Membrane preparation—HEK-293T cells were cultured according to ATCC (Manassas, Va.) guidelines and transfected with human CB2 cDNA (SEQ ID NO:1) (Genbank X74328), operably linked to the SV40 promoter, using Polyfect (Qiagen, Valencia, Calif.) or Fugene (Roche, Nutley, N.J.) according to manufacturer's instructions. […] The membrane concentration was determined using a BioRad (Hercules, Calif.) protein assay dye reagent according to manufacturer's instructions. […]
pKi values by entry
Reply briefly: the number, and no unit.

Solved cases below.
Req: Reported pKi, compound COc1cc(-c2nc3c(C)cccn3c2Nc2ccc3c(c2)OCCO3)ccc1O : ____
Resp: 6.8

Req: What do we get for Cc1cccc2nc(-c3c(O)cccc3F)c(Nc3ccc4c(c3)OCCO4)n12 ?
Resp: 6.6

Req: What do we get for COc1cc(O)ccc1-c1nc2cc(C)ccn2c1Nc1ccc2c(c1)OCCO2 ?
Resp: 6.4

Next:
Req: Reported pKi, compound COc1cccc(OC)c1-c1nc2cccc(C)n2c1Nc1ccc2c(c1)OCCO2 : ____
Resp: 6.3

Req: What do we get for COc1ccnc2nc(-c3c(F)cccc3Cl)c(Nc3ccc4c(c3)OCCO4)n12 ?
Resp: 6.4

Req: What do we get for Fc1ccc(-c2nc3cnccn3c2Nc2ccc3c(c2)OCCO3)cn1 ?
Resp: 5.5

Req: What do we get for Cc1ccn2c(Nc3ccc4c(c3)OCCO4)c(-c3ccccn3)nc2c1 ?
Resp: 5.9

Req: What do we get for Cc1ccc2nc(-c3c(F)cccc3F)c(Nc3ccc4c(c3)OCCO4)n2c1 ?
Resp: 7.4

Req: What do we get for COc1cccc(OC)c1-c1nc2c(C)cccn2c1Nc1ccc2c(c1)OCCO2 ?
Resp: 6.0

###

pKi values by entry
# experimental.target: human CB2 (Homo sapiens)
# Construct: expressed in transfected cells; host or cells: HEK-293T (transient transfection, membrane preparation)
# assay.details: CB2 receptor binding assay, block of [3H]-CP 55,940 binding
# condition.parameters: membranes of HEK-293T cells transfected with human CB2 cDNA; 1.5 nM [3H]-CP 55,940
Reply briefly: the number, and no unit.

Req: Reported pKi, molecule Cc1ccn2c(Nc3ccc4c(c3)OCCO4)c(-c3cccc(F)n3)nc2c1 : ____
Resp: 6.5

Req: What do we get for Cc1ccc2nc(-c3ncccc3F)c(Nc3ccc4c(c3)OCCO4)n2c1 ?
Resp: 6.6

Req: What do we get for Cc1ccc2nc(-c3cccc(F)n3)c(Nc3ccc4c(c3)OCCO4)n2c1 ?
Resp: 7.1

Req: What do we get for FCCOc1cncc(F)c1-c1nc2cccc(OCCF)n2c1Nc1ccc2c(c1)OCCO2 ?
Resp: 6.6

Req: What do we get for COc1ccnc2nc(-c3c(F)cc(OCCF)cc3F)c(Nc3ccc4c(c3)OCCO4)n12 ?
Resp: 7.0

Req: What do we get for Fc1cccc(Cl)c1-c1nc2ccccn2c1Nc1ccc2c(c1)OCCO2 ?
Resp: 7.7

Req: What do we get for COc1cnc2nc(-c3c(F)cccc3Cl)c(Nc3ccc4c(c3)OCCO4)n2c1 ?
Resp: 7.8

Req: What do we get for COc1cccc2nc(-c3c(F)cccc3Cl)c(NC(=O)c3ccc4c(c3)OCCO4)n12 ?
Resp: 5.7

Req: What do we get for COc1cccc2nc(-c3c(C)cncc3C)c(Nc3ccc4c(c3)OCCO4)n12 ?
Resp: 8.2

Req: What do we get for COc1cccc2nc(-c3c(F)cncc3F)c(Nc3ccc4c(c3)OCCO4)n12 ?
Resp: 7.8

Req: What do we get for COc1cccc2nc(-c3c(C)cc(OC[18F])cc3C)c(Nc3ccc4c(c3)OCCO4)n12 ?
Resp: 9.5

Req: What do we get for Cc1cccc(C)c1-c1nc2ncccn2c1Nc1ccc2c(c1)OCCO2 ?
Resp: 6.8

Req: What do we get for Fc1cccc(F)c1-c1nc2ccccn2c1Nc1ccc2c(c1)OCCO2 ?
Resp: 7.3
